These entries and their values trace back to paper PMC11064044.

test system: PC-3 (human prostate cancer); assay: MTT cell viability assay, PC-3; type: cell-based; conditions: 72 h
quantity_measured: pIC50
Schema: pIC50 number; meaning minus log10 of the concentration expressed in molar units.

# lookup: PC-3 (human prostate cancer) pIC50, key = N.N.[Cl][Pt][Cl] [cisplatin, reference compound]
4.73
